Source listed as patent US8637670B2.

test system: H460; assay: Cytotoxicity, propidium iodide assay, H460; format: cell-based; details: Homo sapiens, NCI-H460; Lung, H460, 48 hours treatment; read-out: IC50, C1b (H460)
Readout kind: IC50

Reference set, count: 5
{"Structure": "CC(C)(C#N)c1ccc(-n2c(=O)n(S(=O)(=O)c3ccc(F)cc3F)c3cnc4ccc(Br)cc4c32)cc1", "Study system": "H460", "Readout kind": "IC50", "Result": "1000 to 3000 nM"}
{"Structure": "CC(=O)n1c(=O)n(-c2ccc(C(C)(C)C#N)cc2)c2c3cc(Cl)ccc3ncc21", "Study system": "H460", "Readout kind": "IC50", "Result": "≤ 1000 nM"}
{"Structure": "CC(C)(C#N)c1ccc(-n2c(=O)n(S(=O)(=O)c3ccc(OC(F)(F)F)cc3)c3cnc4ccc(Br)cc4c32)cc1", "Study system": "H460", "Readout kind": "IC50", "Result": "1000 to 3000 nM"}
{"Structure": "CC(C)(C#N)c1ccc(-n2c(=O)n(S(C)(=O)=O)c3cnc4ccc(Br)cc4c32)cc1", "Study system": "H460", "Readout kind": "IC50", "Result": "≤ 1000 nM"}
{"Structure": "Cc1cccc(S(=O)(=O)n2c(=O)n(-c3ccc(C(C)(C)C#N)cc3)c3c4cc(Cl)ccc4ncc32)c1", "Study system": "H460", "Readout kind": "IC50", "Result": "1000 to 3000 nM"}

For every item below, please supply its IC50.
1. Cc1ccc(S(=O)(=O)n2c(=O)n(-c3ccc(C(C)(C)C#N)cc3)c3c4cc(Br)ccc4ncc32)cc1F
2. CC(=O)c1ccc(S(=O)(=O)n2c(=O)n(-c3ccc(C(C)(C)C#N)cc3)c3c4cc(C)ccc4ncc32)cc1

Out:
1: 1000 to 3000 nM; 2: > 3000 nM

---

test system: A2780; test: Cytotoxicity, propidium iodide assay, A2780; type: cell-based; conditions: Homo sapiens; Ovarian, A2780, 48 hours treatment; read-out: IC50, C3a (A2780)
pIC50: −log10 of the molar value.
Readout kind: pIC50

Reference set, count: 4
{"Structure": "CC(C)(C#N)c1ccc(-n2c(=O)n(S(=O)(=O)c3cccc4cccnc34)c3cnc4ccc(Br)cc4c32)cc1", "pIC50": "< 5.52"}
{"Structure": "Cc1cccc(S(=O)(=O)n2c(=O)n(-c3ccc(C(C)(C)C#N)cc3)c3c4cc(Br)ccc4ncc32)c1", "pIC50": "≥ 6.00"}
{"Structure": "CC(C)(C#N)c1ccc(-n2c(=O)n(S(=O)(=O)c3cccc(F)c3)c3cnc4ccc(Br)cc4c32)cc1", "pIC50": "5.52 to 6.00"}
{"Structure": "CC(C)(C#N)c1ccc(-n2c(=O)n(S(=O)(=O)c3ccc(OC(F)(F)F)cc3)c3cnc4ccc(Br)cc4c32)cc1", "pIC50": "≥ 6.00"}

Here's the next entry for you.
In: Param item = `CC(C)(C#N)c1ccc(-n2c(=O)n(S(=O)(=O)c3cccc(Br)c3)c3cnc4ccc(Br)cc4c32)cc1` ; retrieve measured pIC50.
Out: < 5.52

---

tested on: HCT116; test: Cytotoxicity, propidium iodide assay, HCT116; assay type: cell-based; conditions: Homo sapiens, HCT-116; Colon, HCT116, 48 hours treatment; read-out: IC50, C4a (HCT116)
pIC50: −log10 of the molar value.
Readout kind: pIC50

Reference set, count: 5
{"Structure": "Cc1cccc(S(=O)(=O)n2c(=O)n(-c3ccc(C(C)(C)C#N)cc3)c3c4cc(C)ccc4ncc32)c1", "pIC50": "< 5.52"}
{"Structure": "Cc1ccc2ncc3c(c2c1)n(-c1ccc(C(C)(C)C#N)cc1)c(=O)n3S(=O)(=O)c1cc([N+](=O)[O-])ccc1C", "pIC50": "< 5.52"}
{"Structure": "CC(C)(C#N)c1ccc(-n2c(=O)n(S(=O)(=O)c3cccs3)c3cnc4ccc(Br)cc4c32)cc1", "pIC50": "< 5.52"}
{"Structure": "CC(C)(C#N)c1ccc(-n2c(=O)n(S(=O)(=O)c3ccc(F)cc3F)c3cnc4ccc(Br)cc4c32)cc1", "pIC50": "5.52 to 6.00"}
{"Structure": "CC(C)(C#N)c1ccc(-n2c(=O)n(S(=O)(=O)c3cccc4cccnc34)c3cnc4ccc(Br)cc4c32)cc1", "pIC50": "< 5.52"}

For every item below, please supply its pIC50.
1. CC(C)(C#N)c1ccc(-n2c(=O)n(S(C)(=O)=O)c3cnc4ccc(Br)cc4c32)cc1
2. C/C=C/C(=O)n1c(=O)n(-c2ccc(C(C)(C)C#N)cc2)c2c3cc(Br)ccc3ncc21

Out:
["5.52 to 6.00", "5.52 to 6.00"]

---

target: PI3Kα kinase (Homo sapiens, UniProt P42336); construct: purchased Millipore, USA; assay: PI3Kα assay (32P incorporation into phosphatidylinositol, TLC densitometry); assay type: biochemical; conditions: At 100 nM
Sequence (P42336 whole entry): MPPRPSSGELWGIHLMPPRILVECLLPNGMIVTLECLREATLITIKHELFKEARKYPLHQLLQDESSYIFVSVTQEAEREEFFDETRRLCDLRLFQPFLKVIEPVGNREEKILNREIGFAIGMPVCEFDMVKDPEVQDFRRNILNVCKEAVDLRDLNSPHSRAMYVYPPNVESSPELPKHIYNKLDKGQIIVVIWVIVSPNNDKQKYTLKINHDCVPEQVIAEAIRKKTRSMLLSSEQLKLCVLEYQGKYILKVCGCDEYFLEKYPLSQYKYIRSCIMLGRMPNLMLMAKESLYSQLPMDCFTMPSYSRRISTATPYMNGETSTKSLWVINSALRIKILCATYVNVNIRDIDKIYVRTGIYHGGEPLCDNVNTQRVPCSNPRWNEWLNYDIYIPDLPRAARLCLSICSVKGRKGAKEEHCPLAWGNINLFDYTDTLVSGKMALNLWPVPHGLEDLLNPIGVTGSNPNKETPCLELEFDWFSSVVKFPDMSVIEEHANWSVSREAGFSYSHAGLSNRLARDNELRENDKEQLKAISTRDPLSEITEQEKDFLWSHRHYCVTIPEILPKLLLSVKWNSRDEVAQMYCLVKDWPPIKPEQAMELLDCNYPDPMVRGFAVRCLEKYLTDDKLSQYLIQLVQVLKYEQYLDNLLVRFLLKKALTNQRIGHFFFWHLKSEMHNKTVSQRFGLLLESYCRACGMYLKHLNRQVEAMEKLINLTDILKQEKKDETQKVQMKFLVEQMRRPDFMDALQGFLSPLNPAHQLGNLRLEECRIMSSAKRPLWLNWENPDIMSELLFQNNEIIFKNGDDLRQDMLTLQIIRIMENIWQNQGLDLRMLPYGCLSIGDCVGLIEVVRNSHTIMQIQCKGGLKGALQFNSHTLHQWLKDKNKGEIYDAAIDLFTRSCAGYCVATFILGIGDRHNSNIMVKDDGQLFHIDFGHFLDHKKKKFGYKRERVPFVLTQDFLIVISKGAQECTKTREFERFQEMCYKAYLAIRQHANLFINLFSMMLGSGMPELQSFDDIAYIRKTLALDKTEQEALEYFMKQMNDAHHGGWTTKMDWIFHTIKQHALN
Sequence (P27986 whole entry partner): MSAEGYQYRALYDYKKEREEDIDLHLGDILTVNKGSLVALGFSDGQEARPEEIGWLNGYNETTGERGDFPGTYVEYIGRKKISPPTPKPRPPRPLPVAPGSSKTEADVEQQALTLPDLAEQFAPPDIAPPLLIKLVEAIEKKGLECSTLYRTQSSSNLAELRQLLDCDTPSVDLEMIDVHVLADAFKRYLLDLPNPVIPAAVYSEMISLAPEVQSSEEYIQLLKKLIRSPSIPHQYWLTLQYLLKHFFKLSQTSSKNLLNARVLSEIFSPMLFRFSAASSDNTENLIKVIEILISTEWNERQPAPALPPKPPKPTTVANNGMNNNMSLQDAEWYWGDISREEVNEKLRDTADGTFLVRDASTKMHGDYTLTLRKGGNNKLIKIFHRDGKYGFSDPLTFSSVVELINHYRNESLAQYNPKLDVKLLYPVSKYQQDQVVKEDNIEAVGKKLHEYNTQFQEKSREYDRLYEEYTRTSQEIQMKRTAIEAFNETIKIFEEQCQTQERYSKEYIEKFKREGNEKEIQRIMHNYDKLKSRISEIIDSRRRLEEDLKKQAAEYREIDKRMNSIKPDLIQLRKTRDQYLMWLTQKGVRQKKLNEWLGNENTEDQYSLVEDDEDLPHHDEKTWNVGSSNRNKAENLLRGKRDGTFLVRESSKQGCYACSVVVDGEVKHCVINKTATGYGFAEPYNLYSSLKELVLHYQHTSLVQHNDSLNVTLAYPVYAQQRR
Readout kind: inhibition at 0.1 µM

Reference set, count: 2
{"Compound": "CC(C)(C#N)c1ccc(-n2c(=O)n(S(=O)(=O)c3ccccc3C#N)c3cnc4ccc(Cl)cc4c32)cc1 [Example 20]", "Readout kind": "inhibition at 0.1 µM", "Result": "10 to 50%"}
{"Compound": "CC(=O)n1c(=O)n(-c2ccc(C(C)(C)C#N)cc2)c2c3cc(Cl)ccc3ncc21 [Example 36]", "Readout kind": "inhibition at 0.1 µM", "Result": "10 to 50%"}

In: Param item = CC(C)(C#N)c1ccc(-n2c(=O)n(S(=O)(=O)c3ccc(F)cc3F)c3cnc4ccc(Br)cc4c32)cc1 [Example 17] ; retrieve measured inhibition at 0.1 µM.
Out: 10 to 50%

---

Would you mind telling me the reported IC50 of each entry?
test system: TNF-α; assay: Human monocyte assay, LPS-stimulated TNF-α (ELISA); format: cell-based; conditions: human monocytes, 1 μg/ml LPS, 5 hours, read-out: TNFα (IC50)

Reference set, count: 5
{"Structure": "CC(C)(C#N)c1ccc(-n2c(=O)n(C(=O)c3ccccc3)c3cnc4ccc(Cl)cc4c32)cc1", "IC50": "≤ 1000 nM"}
{"Structure": "CC(C)(C#N)c1ccc(-n2c(=O)n(C(=O)c3ccccc3)c3cnc4ccc(Br)cc4c32)cc1", "IC50": "≤ 1000 nM"}
{"Structure": "C/C=C/C(=O)n1c(=O)n(-c2ccc(C(C)(C)C#N)cc2)c2c3cc(Br)ccc3ncc21", "IC50": "≤ 1000 nM"}
{"Structure": "CC(C)(C#N)c1ccc(-n2c(=O)n(S(=O)(=O)c3ccccc3C#N)c3cnc4ccc(Br)cc4c32)cc1", "IC50": "≤ 1000 nM"}
{"Structure": "C/C=C/C(=O)n1c(=O)n(-c2ccc(C(C)(C)C#N)cc2)c2c3cc(Cl)ccc3ncc21", "IC50": "≤ 1000 nM"}

In: Param item = `CC(C)(C#N)c1ccc(-n2c(=O)n(C(=O)Nc3ccccc3Br)c3cnc4ccc(Br)cc4c32)cc1` ; retrieve measured IC50.
Out: ≤ 1000 nM

---

Would you mind telling me the reported pIC50 of each entry?
system: U 87 MG; test: Cytotoxicity, propidium iodide assay, U 87 MG; assay type: cell-based; details: Homo sapiens, Glioblastoma, 48 hours treatment, read-out: IC50, C7b (U 87 MG)
pIC50: −log10 of the molar value.

{"Molecule": "Cc1ccc([N+](=O)[O-])cc1S(=O)(=O)n1c(=O)n(-c2ccc(C(C)(C)C#N)cc2)c2c3cc(Br)ccc3ncc21 [Example 4]", "pIC50": "5.52 to 6.00"}

For every item below, please supply its pIC50.
1. CC(C)(C#N)c1ccc(-n2c(=O)n(C(=O)Nc3ccccc3Br)c3cnc4ccc(Br)cc4c32)cc1 [Example 33]
2. CC(=O)n1c(=O)n(-c2ccc(C(C)(C)C#N)cc2)c2c3cc(Cl)ccc3ncc21 [Example 36]
3. Cc1ccc(S(=O)(=O)n2c(=O)n(-c3ccc(C(C)(C)C#N)cc3)c3c4cc(Br)ccc4ncc32)cc1F [Example 5]

Out:
< 5.52
< 5.52
5.52 to 6.00

For every item below, please supply its pIC50.
1. CC(C)(C#N)c1ccc(-n2c(=O)n(S(=O)(=O)c3cccc(C(F)(F)F)c3)c3cnc4ccc(Br)cc4c32)cc1 [Example 13]
2. CC(C)(C#N)c1ccc(-n2c(=O)n(C(=O)c3ccccc3)c3cnc4ccc(Cl)cc4c32)cc1 [Example 37]
3. Cc1cccc(S(=O)(=O)n2c(=O)n(-c3ccc(C(C)(C)C#N)cc3)c3c4cc(Br)ccc4ncc32)c1 [Example 3]
4. Cc1cc(C)cc(S(=O)(=O)n2c(=O)n(-c3ccc(C(C)(C)C#N)cc3)c3c4cc(Br)ccc4ncc32)c1 [Example 6]

Out:
< 5.52
< 5.52
5.52 to 6.00
< 5.52
